Can you tell me koff for the items I'm about to list?
- Tgt: T1, human IL-8 (human, UniProt P10145 23-99, limits assumed)
- T1 construct: also called hIL-8; hIL8
- Test summary: SPR Biacore T200, Protein A/G capture, pH 5.8, 37C;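 also: antibodies captured by Protein A/G amine-coupled onto a CM4 sensor chip, with kinetic parameters derived using Biacore T200 Evaluation Software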
Give bare numbers, in s⁻¹.

Solved entries (count: 2):
H1028/L0442 (antibody, human IgG1, kappa, name in Kabat numbering, V domains shown, L442 = L395 + S31E) VH: QVQLVESGGGLVQPGGSLRLSCAASGFTFSDYYLSWVRQAPGKGLEWVGLIRNKDNYHHPEYSASVKGRFTISRDDSKNSLYLTMSDLKTEDTAVYYCARENHRYDVELAYWGQGTLVTVSS VL: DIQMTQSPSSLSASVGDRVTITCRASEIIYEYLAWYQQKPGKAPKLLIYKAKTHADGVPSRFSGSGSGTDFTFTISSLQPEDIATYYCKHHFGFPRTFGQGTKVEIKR | 0.13
H1004/L0442 (antibody, human IgG1, kappa, name in Kabat numbering, V domains shown, L442 = L395 + S31E) VH: QVQLVESGGGLVQPGGSLRLSCAASGFTFSDYYLSWVRQAPGKGLEWVGLIRNKDNGYTPEYSASVKGRFTISRDDSKNSLYLTMSDLKTEDTAVYYCARENHRYDVELAYWGQGTLVTVSS VL: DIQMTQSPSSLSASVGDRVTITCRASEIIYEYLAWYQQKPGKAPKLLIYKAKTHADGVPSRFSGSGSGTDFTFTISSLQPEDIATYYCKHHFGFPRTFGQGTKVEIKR | 0.02

Hi, could you look up koff for each item in my list?
1. H1029/L0395 (antibody, human IgG1, kappa, name in Kabat numbering, V domains shown) VH: QVQLVESGGGLVQPGGSLRLSCAASGFTFDKYYLSWVRQAPGKGLEWVGLIRNKDNHHTPEYSASVKGRFTISRDDSKNSLYLTMSDLKTEDTAVYYCARENHRYDVELAYWGQGTLVTVSS VL: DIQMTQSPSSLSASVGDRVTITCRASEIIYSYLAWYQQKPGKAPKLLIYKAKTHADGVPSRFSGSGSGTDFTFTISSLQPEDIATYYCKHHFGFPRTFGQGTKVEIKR
2. H1032/L0442 (antibody, human IgG1, kappa, name in Kabat numbering, V domains shown, L442 = L395 + S31E) VH: QVQLVESGGGLVQPGGSLRLSCAASGFTFDKYYLSWVRQAPGKGLEWVGLIRNKDNGYHPEYSASVKGRFTISRDDSKNSLYLTMSDLKTEDTAVYYCARENHRYDVELAYWGQGTLVTVSS VL: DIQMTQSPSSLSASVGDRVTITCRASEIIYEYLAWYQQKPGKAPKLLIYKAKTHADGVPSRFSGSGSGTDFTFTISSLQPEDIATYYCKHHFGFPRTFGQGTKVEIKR
3. H1050/L0442 (antibody, human IgG1, kappa, name in Kabat numbering, V domains shown, L442 = L395 + S31E) VH: QVQLVESGGGLVQPGGSLRLSCAASGFTFSEYYLSWVRQAPGKGLEWVGLIRNKDNYHTPEYSASVKGRFTISRDDSKNSLYLTMSDLKTEDTAVYYCARENHRYDVELAYWGQGTLVTVSS VL: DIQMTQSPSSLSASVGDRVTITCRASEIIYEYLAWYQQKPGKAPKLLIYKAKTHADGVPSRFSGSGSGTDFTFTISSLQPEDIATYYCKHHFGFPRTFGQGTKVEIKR

0.008
0.0059
0.0076
